# assayed-system: T1, human Granzyme B (human, UniProt P10144 21-247)
# T1 construct: Captured on a Series S Streptavidin chip for SPR; also called hGranzyme B; GzmB
# T1 sequence (P10144 21-247 limits assumed): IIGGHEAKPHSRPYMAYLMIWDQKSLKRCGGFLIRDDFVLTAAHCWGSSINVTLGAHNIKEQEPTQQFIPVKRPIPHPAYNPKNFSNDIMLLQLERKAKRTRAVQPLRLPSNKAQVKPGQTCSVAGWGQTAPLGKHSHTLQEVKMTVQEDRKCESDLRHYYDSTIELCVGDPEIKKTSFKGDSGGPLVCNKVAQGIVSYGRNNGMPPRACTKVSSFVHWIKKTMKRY
# assay-method-text: SPR, Biacore 8k+, hGranzyme B captured on SA chip, single cycle kinetics, 1:1 model
Bridge positions count the residues as written; N and C are the ends. Square brackets hold non-standard residues; d marks the D form. NEtAla = CCN[C@@H](C)C(=O)O
assay-endpoint: Kd (nM)
The response must be a number in nM with no trailing unit.

Could you tell me which Kd is on file for {CH2CO}-FNFEDQSPDTWQ[NEtAla]CG-NH2 (thioether N-14; SMILES CCN1C(=O)[C@H](CCC(N)=O)NC(=O)[C@H](Cc2c[nH]c3ccccc23)NC(=O)[C@H]([C@@H](C)O)NC(=O)[C@H](CC(=O)O)NC(=O)[C@@H]2CCCN2C(=O)[C@H](CO)NC(=O)[C@H](CCC(N)=O)NC(=O)[C@H](CC(=O)O)NC(=O)[C@H](CCC(=O)O)NC(=O)[C@H](Cc2ccccc2)NC(=O)[C@H](CC(N)=O)NC(=O)[C@H](Cc2ccccc2)NC(=O)CSC[C@@H](C(=O)NCC(N)=O)NC(=O)[C@@H]1C) [Compound 68a] ?
15.6
